- System under test: Human PARP-1 enzyme (Homo sapiens)
- Construct: purchased Trevigen
- Sequence (P09874 whole entry): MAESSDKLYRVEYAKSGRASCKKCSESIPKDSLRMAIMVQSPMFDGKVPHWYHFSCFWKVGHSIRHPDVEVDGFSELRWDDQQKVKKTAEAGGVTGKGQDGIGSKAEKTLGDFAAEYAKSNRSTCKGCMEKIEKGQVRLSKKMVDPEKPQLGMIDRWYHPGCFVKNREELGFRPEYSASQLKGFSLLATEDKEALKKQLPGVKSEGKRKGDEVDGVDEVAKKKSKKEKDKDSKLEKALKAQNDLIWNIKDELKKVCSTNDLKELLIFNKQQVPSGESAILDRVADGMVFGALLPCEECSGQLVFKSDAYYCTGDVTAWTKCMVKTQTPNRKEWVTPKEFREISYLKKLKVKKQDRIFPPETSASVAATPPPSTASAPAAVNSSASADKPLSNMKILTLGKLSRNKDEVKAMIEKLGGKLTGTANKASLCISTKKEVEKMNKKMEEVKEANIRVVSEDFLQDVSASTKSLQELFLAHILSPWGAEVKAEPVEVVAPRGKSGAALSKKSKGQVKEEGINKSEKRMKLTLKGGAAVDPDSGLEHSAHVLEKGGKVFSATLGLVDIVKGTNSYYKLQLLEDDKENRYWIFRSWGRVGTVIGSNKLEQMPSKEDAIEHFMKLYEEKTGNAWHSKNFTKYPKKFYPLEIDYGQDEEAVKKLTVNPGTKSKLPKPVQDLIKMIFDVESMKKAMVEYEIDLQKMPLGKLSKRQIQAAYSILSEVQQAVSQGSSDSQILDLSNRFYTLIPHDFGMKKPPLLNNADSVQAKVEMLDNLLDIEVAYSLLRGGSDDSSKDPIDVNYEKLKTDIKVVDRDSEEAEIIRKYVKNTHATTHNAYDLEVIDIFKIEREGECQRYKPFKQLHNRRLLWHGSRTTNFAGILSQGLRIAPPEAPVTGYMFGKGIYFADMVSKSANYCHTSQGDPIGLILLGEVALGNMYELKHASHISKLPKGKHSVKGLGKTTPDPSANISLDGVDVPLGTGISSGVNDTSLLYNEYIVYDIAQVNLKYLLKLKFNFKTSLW
- Protocol text: In vitro Scintillation Proximity Assay (SPA) for PARP-1 inhibitory activity
- Assay type: biochemical
- Measurement conditions: read-out: in vitro SPA assay PARP-1 pIC50 (converted)
- Method: Compounds of the present invention were tested in an in vitro assay based on SPA technology (proprietary to GE healthcare). […] Histones (type II-A, supplier: Sigma) were biotinylated using the biotinylation kit of Amersham and stored aliquoted at −20° C. […] The beads were sedimented by centrifugation (10 min, 800 rpm). and plates transferred to a TopCountNXT™ (Packard) for scintillation counting, values were expressed as counts per minute (cpm). […]
For each record, write down the corresponding log10 of IC50.
Lab note - IC50 converted to log10 from values in nM.

Past entries and their recorded results:
Molecule	System under test	log10 of IC50
CCc1cc2ccc(C(C)(C#N)Cc3nc(C#N)cc(N(C)C)n3)cc2[nH]c1=O (centres unmarked) [Compound 318]	Human PARP-1 enzyme (Homo sapiens)	1.90
Cc1cc2ccc([C@](C)(C#N)C3CCc4cccnc43)cc2[nH]c1=O (single isomer, unassigned) [Compound 388]	Human PARP-1 enzyme (Homo sapiens)	2.30
CCc1cc2ccc(C(C)(C#N)Cc3cccc(C#C[Si](C)(C)C)n3)cc2[nH]c1=O (centres unmarked) [Compound 210]	Human PARP-1 enzyme (Homo sapiens)	2.60
CCc1cc2ccc(C(C)(C#N)CCOc3cccc(Cl)c3)cc2[nH]c1=O (centres unmarked) [Compound 151]	Human PARP-1 enzyme (Homo sapiens)	2.70

Give one value of log10 of IC50 per listed molecule.
1. Cc1cc2ccc([C@@](C)(C#N)[C@H]3CCCc4ccccc43)cc2[nH]c1=O [Compound 384]
2. CCc1cc2ccc(C(C#N)(CC)Cc3ccccc3)cc2[nH]c1=O (centres unmarked) [Compound 32]

Output:
[1.70, 2.70]

Give one value of log10 of IC50 per listed molecule.
1. CCc1cc2ccc([C@](C)(C#N)CN(C)Cc3ccc(C#N)cc3)cc2[nH]c1=O [Compound 190]
2. CCc1cc2ccc(C(C)(C#N)Cc3c(F)ccc(C)c3F)cc2[nH]c1=O (centres unmarked) [Compound 41]

Output:
1.80
3.00

From: patent US8778966B2
